Source of measurements: patent US6750228B1

# measured.target: MMP-13 (Homo sapiens, UniProt P45452)
# Construct: made in house; host or cells: baculovirus / insect cells
# assay.notes: biochemical
# experimental.context: recombinant human MMP-13, MCA peptide substrate 4 μM, pH 7.5, room temperature; read-out: MMP-13 IC50
pIC50: −log10 of the molar value.
Record 1.0 whenever pIC50 is at 8 or higher; record 0.0 when lower.

compound	class
O=C(c1cc(F)cc(F)c1)C1CCN(c2ccc(S(=O)(=O)C3(C(=O)NO)CCOCC3)cc2)CC1	0.0
CCN(CC(=O)N1CCC(C(=O)NO)(S(=O)(=O)c2ccc(Oc3ccc(C(F)(F)F)cc3)cc2)CC1)Cc1ccncc1	1.0
CCCCCC(=O)C1CCN(c2ccc(S(=O)(=O)C3(C(=O)NO)CCOCC3)cc2)CC1	1.0
O=C(NO)C1(S(=O)(=O)c2ccc(N3CCCCC3CCOCc3ccc(F)cc3)cc2)CCOCC1 (centres unmarked)	0.0
CSc1ccc(C(=O)C2CCN(c3ccc(S(=O)(=O)C4(C(=O)NO)CCOCC4)cc3)CC2)cc1	1.0
O=C(CN1CCCC1)N1CCC(C(=O)NO)(S(=O)(=O)c2ccc(Oc3ccc(C(F)(F)F)cc3)cc2)CC1	1.0
CC(=O)c1ccc(OC2CCN(c3ccc(S(=O)(=O)C4(C(=O)NO)CCOCC4)cc3)CC2)c(Cl)c1	0.0
O=C(NO)C1(S(=O)(=O)c2ccc(N3CCc4ccccc4C3)cc2)CCOCC1	0.0
CC1CC(C)CN(C(=O)C2CCN(c3ccc(S(=O)(=O)C4(C(=O)NO)CCN(C(=O)CNCc5ccccn5)CC4)cc3)CC2)C1 (centres unmarked)	0.0
COCC1CCCN(c2ccc(S(=O)(=O)C3(C(=O)NO)CCOCC3)cc2)C1 (centres unmarked)	0.0
O=C(NO)C1(S(=O)(=O)c2ccc(N3CCC(Oc4ccc(C(F)(F)F)cc4[N+](=O)[O-])CC3)cc2)CCOCC1	0.0
O=C(NO)C1(S(=O)(=O)c2ccc(N3CCC(OCc4ccccc4C(F)(F)F)CC3)cc2)CCOCC1	0.0
O=C(NO)C1(S(=O)(=O)c2ccc(N3CCC(Oc4ccc5c(c4)CCCC5)CC3)cc2)CCOCC1	0.0
CN(C)c1ccc(S(=O)(=O)C2CCN(c3ccc(S(=O)(=O)C4(C(=O)NO)CCOCC4)cc3)CC2)cc1	0.0
CCN(Cc1ccncc1)C(=O)C1CCN(c2ccc(S(=O)(=O)C3(C(=O)NO)CCOCC3)cc2)CC1	0.0
O=C(NO)C1(S(=O)(=O)c2ccc(N3CCC(OCc4ccc(COCCF)cc4)CC3)cc2)CCOCC1	1.0
O=C(Nc1c(F)cccc1F)N1CCC(C(=O)NO)(S(=O)(=O)c2ccc(Oc3ccc(OC(F)(F)F)cc3)cc2)CC1	1.0
CC1CC(C)CN(C(=O)C2CCN(c3ccc(S(=O)(=O)C4(C(=O)NO)CCN(C(=O)CN5CCCCC5)CC4)cc3)CC2)C1 (centres unmarked)	0.0
CC1CN(c2ccc(S(=O)(=O)C3(C(=O)NO)CCOCC3)cc2)CCC1OCc1ccc(F)cc1 (centres unmarked)	0.0
O=C(CCCCN1CCCCC1)N1CCC(C(=O)NO)(S(=O)(=O)c2ccc(Oc3ccc(C(F)(F)F)cc3)cc2)CC1	1.0
CCCCCC(=O)N1CCN(c2ccc(S(=O)(=O)C3(C(=O)NO)CCOCC3)cc2)CC1	0.0
CC(C)(C)c1ccc(CC2CCN(c3ccc(S(=O)(=O)C4(C(=O)NO)CCOCC4)cc3)CC2)cc1	0.0
